# methodSummary: cochlear distribution after IT administration (absorption)
# Format: in vivo
# testSettings: cochlea (cochlear homogenate), other: intratympanic (IT); rat, IT 200 μM, 24 hours; read-out: mean cochlear LPT99 concentration
observable: concentration at 24 h (ng/g)
Your answer should be a plain number; it is taken to be in ng/g.

Prompt line: Name the recorded concentration at 24 h for COc1ccc2[nH]cc(CCNC(=O)CC3C(=O)N(CCc4ccc(Cl)cc4Cl)CC(=O)N3CCc3cccs3)c2c1 (stereo not shown) .
Response line: 13.4

====

# methodSummary: solubility
# Type: physicochemical
# testSettings: aqueous (not further specified); read-out: aqueous solubility
observable: solubility
The reply should consist of the numeric value with the unit placed after it.

Prompt line: I have this compound here, COc1ccc2[nH]cc(CCNC(=O)CC3C(=O)N(CCc4ccc(Cl)cc4Cl)CC(=O)N3CCc3cccs3)c2c1 (stereo not shown) , and I need its recorded solubility.
Response line: 2.4 µM
